# Target Or Test System: Pim-1 (Homo sapiens (Human), UniProt P11309)
# Sequence (P11309 whole entry): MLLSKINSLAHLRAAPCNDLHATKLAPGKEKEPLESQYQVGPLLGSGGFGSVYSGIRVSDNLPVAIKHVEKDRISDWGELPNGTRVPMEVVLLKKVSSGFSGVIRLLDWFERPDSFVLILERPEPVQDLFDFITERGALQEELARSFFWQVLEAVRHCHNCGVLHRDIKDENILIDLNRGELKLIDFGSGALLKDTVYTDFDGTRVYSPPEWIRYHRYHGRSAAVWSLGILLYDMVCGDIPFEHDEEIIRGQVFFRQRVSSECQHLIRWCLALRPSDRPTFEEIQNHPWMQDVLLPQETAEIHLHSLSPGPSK
# Protocol Summary: Pim kinase binding activity assay (Example 901), PIM-1 enzyme, Caliper microfluidic peptide phosphorylation
# Type: biochemical
# Conditions: 20 pM PIM-1, 10 μM ATP, 1 μM FAM-peptide, 90 minutes at room temperature
Assign Ki to each entry below.
Write it as a number; the unit nM goes unstated.

Look up and report measured Ki for this entry: `CN1CCN(c2nc(-c3n[nH]c4cnc(-c5cnn(C)c5)cc34)ccc2Br)CC1`
0.07

Query Ki for `CCn1cc(-c2cc3c(-c4cccc(N5CCN(C)CC5)n4)n[nH]c3cn2)cn1`
0.268

Supply Ki value. Item: `Cn1cc(-c2cc3c(-c4cccc(N5C[C@H](N)C[C@@H](F)C5)n4)n[nH]c3cn2)cn1`
1.17

Please report the measured Ki for `c1cncc(-c2cc3c(-c4cn[nH]c4)n[nH]c3cn2)c1`
2.31

Given `N#Cc1cc2c(-c3cccc(N4CCNCC4)n3)n[nH]c2cn1` , respond with its Ki.
51.1

Consider the molecule `N[C@H]1CCCN(Cc2n[nH]c3cnc(-c4cccnc4)cc23)C1` and give its recorded Ki.
3000

Using known records, supply Ki for `CCn1cc(-c2cc3c(-c4cc(C(F)(F)F)ccn4)n[nH]c3cn2)cn1`
65.6

Find the measured Ki of `O[C@H]1CCN(c2nc(-c3n[nH]c4cnc(-c5cccnc5)cc34)ccc2Br)C1` and report it.
0.059

Indicate its recorded Ki; the molecule in question is `Cc1ccc(-c2n[nH]c3cnc(-c4cccnc4)cc23)nc1N1CCC(O)CC1`
0.086

Write down Ki measured for item `Cc1n[nH]c2cnc(-c3cnccn3)cc12`
620

Tell us which Ki value is on record for `FCCn1cc(-c2cc3c(-c4cccc(N5CCNCC5)n4)n[nH]c3cn2)cn1`
0.108

Fill in reported Ki for this entry: `C=C(C)c1ccnc(-c2n[nH]c3cnc(-c4cnn(CC)c4)cc23)c1`
54.1

Item `NCC1CCN(c2cncc(-c3cc4c(-c5ccccc5F)n[nH]c4cn3)c2)CC1` : provide Ki
1.71

Give the reported value of Ki for this record: `N#CCc1cc2c(-c3cccc(N4CCNCC4)n3)n[nH]c2cn1`
583

Let me know recorded Ki for `FC(F)(F)Cn1cc(-c2cc3c(-c4cccc(N5CCNCC5)n4)n[nH]c3cn2)cn1` , thanks.
0.022

For the molecule `CCn1cc(-c2cc3c(-c4ccc(Br)c(N5C[C@@H](N)C[C@@H](F)C5)n4)n[nH]c3cn2)cn1` , give its measured Ki value.
0.026

Give Ki for `N[C@H]1CCCN(c2cccc(-c3n[nH]c4cnc(N5CCOC5=O)cc34)n2)C1`
85

Indicate its recorded Ki; the molecule in question is `O=C1CN(c2cc3c(-c4cccc(N5CCNCC5)n4)n[nH]c3cn2)CCN1`
12.6
